Each recorded value in this set is attributed to patent US12421254B2.

Molecular target: GST-tagged KRAS-G12V (2-169) (Homo sapiens, UniProt P01116, G12V)
Sequence (P01116 2-169 isoform P01116-2 G12V): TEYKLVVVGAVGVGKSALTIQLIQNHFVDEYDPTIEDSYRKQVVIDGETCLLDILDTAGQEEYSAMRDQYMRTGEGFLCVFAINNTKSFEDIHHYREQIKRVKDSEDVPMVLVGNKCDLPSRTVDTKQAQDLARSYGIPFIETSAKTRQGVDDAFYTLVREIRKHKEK
Test: Nucleotide exchange assay (NEA), SOS-mediated, HTRF, KRAS G12V
Conditions: Table 4; IC50 extracted at 90 min; 80 nM SOS
Excerpt: This activity is tightly regulated by GTPase activating proteins (GAPs) and guanine nucleotide exchange factors (GEFs). […] Homogenous time resolved fluorescence (HTRF) was used to detect SOS-mediated binding of a fluorescent GTP analog, GTP-DY-647P1 (Jena Biosciences NU-820-647P1) to GST-tagged KRAS-G12D (2-169) or to GST-tagged KRAS-G12V (2-169, Reaction Biology, MSC-11-540). […]
pIC50: −log10 of the molar value.
PROPERTY NAME: pIC50

Look up pIC50 for this compound: "CCN(c1nc(OC[C@@H]2C[C@@H](F)CN2)nc(N2CC3(C2)SCc2sc(N)c(C#N)c23)n1)[C@H](C)c1cccnc1N"
> 8.00

Look up pIC50 for this compound: "C[C@]1(O)CN(c2nc(OC[C@@]34CCCN3C[C@H](F)C4)nc(N3CC4(CCc5sc(N)c(C#N)c54)C3)n2)CC[C@H]1O"
7.00 to 8.00

Look up pIC50 for this compound: CC(C#N)N(CC(F)F)c1nc(OC[C@@]23CCCN2C[C@H](F)C3)nc(N2CC3(C2)SCc2sc(N)c(C#N)c23)n1 (stereo partly drawn)
> 8.00

Look up pIC50 for this compound: "N#Cc1c(N)sc2c1C1(CN(c3nc(OC[C@@]45CCCN4C[C@H](F)C5)nc(N4C5COCC4C5)n3)C1)SC2"
7.00 to 8.00

Continuing:
Look up pIC50 for this compound: N#Cc1c(N)sc2c1C1(CC2)CN(c2nc(OC[C@@]34CCCN3C[C@H](F)C4)nc(N3CCCCC3C#N)n2)C1 (stereo partly drawn)
7.00 to 8.00

Look up pIC50 for this compound: "N#CCN(CC(F)F)c1nc(OC[C@@]23CCCN2C[C@H](F)C3)nc(N2CC3(C2)SCc2sc(N)c(C#N)c23)n1"
> 8.00

---

Target: GST-tagged KRAS-G12V (2-169) (Homo sapiens, UniProt P01116, G12V)
Assay: Nucleotide exchange assay (NEA), SOS-mediated, HTRF, KRAS G12V
Settings: Table 4; IC50 extracted at 90 min; 80 nM SOS
The entries below are paired with their reported IC50.

Example cases with answers are listed next.
Look up IC50 for this compound: CN(C)CC1(COc2nc(N3CC4(CCc5sc(N)c(C#N)c54)C3)nc(N3CCC[C@@](C)(O)C3)n2)CC1(F)F (stereo partly shown) [Compound 34]
< 10 nM

Look up IC50 for this compound: N#Cc1c(N)sc2c1C1(CN(c3nc(OC[C@@]45CCCN4C[C@H](F)C5)nc(N(CC(=O)O)Cc4cccnc4N)n3)C1)SC2 [Compound 187]
< 10 nM

Look up IC50 for this compound: N#Cc1c(N)sc2c1C1(CCC2)CN(c2nc(OC[C@@]34CCCN3C[C@H](F)C4)nc(N3CCCC(C#N)CC3)n2)C1 (stereo partly shown) [Compound 39]
10 to 100 nM

Look up IC50 for this compound: C[C@@]1(O)CCCN(c2nc(OCC3(CN4CCOCC4)CC3)nc(N3CC4(C3)c3c(sc(N)c3C#N)C[C@H]4F)n2)C1 [Compound 70]
< 10 nM

Look up IC50 for this compound: CC(c1n[nH]cc1N)N(C)c1nc(OC[C@@]23CCCN2C[C@H](F)C3)nc(N2CC3(C2)SCc2sc(N)c(C#N)c23)n1 (stereo partly shown) [Compound 192]
10 to 100 nM

Continuing:
Look up IC50 for this compound: N#Cc1c(N)sc2c1C1(CN(c3nc(OCC4(CN5CCOCC5)CC4)nc(N4C[C@H]5CC[C@@H](C4)N5)n3)C1)SC2 [Compound 167]
10 to 100 nM

Look up IC50 for this compound: CC(Nc1nc(OC[C@@]23CCCN2C[C@H](F)C3)nc(N2CC3(CCc4sc(N)c(C#N)c43)C2)n1)c1cccnc1N (stereo partly shown) [Compound 88]
< 10 nM

Look up IC50 for this compound: N#Cc1c(N)sc2c1C1(CC2)CN(c2nc(OC[C@@]34CCCN3C[C@H](F)C4)nc(N3CCCOCC3)n2)C1 [Compound 89]
< 10 nM

Look up IC50 for this compound: CN(CC(=O)NC(=N)N)c1nc(OC[C@@]23CCCN2C[C@H](F)C3)nc(N2CC3(C2)SCc2sc(N)c(C#N)c23)n1 [Compound 215]
100 to 1000 nM

Look up IC50 for this compound: N#Cc1c(N)sc2c1C1(CN(c3nc(OC[C@@]45CCCN4C[C@H](F)C5)nc(N(CCO)C4(C#N)CC4)n3)C1)SC2 (racemic) [Compound 240]
< 10 nM

Look up IC50 for this compound: CCN(CC#N)c1nc(OC[C@@]23CCCN2C[C@H](F)C3)nc(N2CC3(C2)SCc2sc(N)c(C#N)c23)n1 [Compound 237]
< 10 nM

Look up IC50 for this compound: CCN(c1nc(OC[C@@H]2CC(F)(F)CN2C)nc(N2CC3(C2)SCc2sc(N)c(C#N)c23)n1)[C@H](C)c1cccnc1N [Compound 176]
< 10 nM

Look up IC50 for this compound: C[C@@]1(O)C[C@@H](F)CN(c2nc(OC[C@@]34CCCN3C[C@H](F)C4)nc(N3CC4(C3)SCc3sc(N)c(C#N)c34)n2)C1 [Compound 123]
< 10 nM

---

Molecular target: GST-tagged KRAS-G12D (2-169) (Homo sapiens, UniProt P01116, G12D)
Sequence (P01116 2-169 isoform P01116-2 G12D): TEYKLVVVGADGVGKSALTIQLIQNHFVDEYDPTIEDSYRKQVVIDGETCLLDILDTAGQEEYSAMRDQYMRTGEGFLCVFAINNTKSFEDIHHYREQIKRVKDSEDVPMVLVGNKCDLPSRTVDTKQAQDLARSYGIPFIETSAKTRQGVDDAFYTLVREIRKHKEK
Assay: Nucleotide exchange assay (NEA), SOS-mediated, HTRF, KRAS G12D
Type: biochemical
Settings: Table 4; IC50 extracted at 30 min; 20 nM SOScat; read-out: NEA G12D IC50
pIC50: −log10 of the molar value.
PROPERTY NAME: pIC50

Look up pIC50 for this compound: "N#Cc1c(N)sc2c1C1(CN(c3nc(OCC4(CN5CCOCC5)CC4)nc(N4CCNC[C@H]4CO)n3)C1)SC2"
> 8.00

Look up pIC50 for this compound: N#Cc1c(N)sc2c1C1(CC2)CN(c2nc(OC[C@@]34CCCN3C[C@H](F)C4)nc(N3CCOCC(C#N)C3)n2)C1 (single isomer, unassigned) [Compound 91B]
> 8.00

Look up pIC50 for this compound: CC(c1cccnc1N)N(C)c1nc(OC[C@@]23CCCN2C[C@H](F)C3)nc(N2CC3(C2)SCc2sc(N)c(C#N)c23)n1 (single isomer, unassigned) [Compound 120B]
> 8.00

Look up pIC50 for this compound: C[C@H](c1cccnc1N)N(C)c1nc(OC[C@@]23CCCN2C[C@H](F)C3)nc(N2CCC(c3c(Cl)sc(N)c3C#N)C2)n1 (stereo partly drawn)
7.00 to 8.00

Look up pIC50 for this compound: C[C@@]1(O)CCCN(c2nc(OC[C@@]34CCCN3C[C@H](F)C4)nc(N3CCC4(CCCc5sc(N)c(C#N)c54)C3)n2)C1 (stereo partly drawn)
4.70 to 6.00

Shifting focus to the compound that follows.
Look up pIC50 for this compound: CC(c1c[nH]nc1Cl)N(C)c1nc(OC[C@@]23CCCN2C[C@H](F)C3)nc(N2CC3(CCc4sc(N)c(C#N)c43)C2)n1 (stereo partly drawn)
4.70 to 6.00

---

Test system: phospho-ERK in SW620 (KRAS-G12V) cells
Test: pERK In Cell Western (ICW) assay (Method B), SW620
Type: cell-based
Settings: Homo sapiens, SW-620, 3 h, Table 4
PROPERTY NAME: IC50

Example cases with answers are listed next.
Look up IC50 for this compound: CC(c1cccnc1N)N(C)c1nc(OC[C@@]23CCCN2C[C@H](F)C3)nc(N2CC3(C2)SCc2sc(N)c(C#N)c23)n1 (single isomer, unassigned) [Compound 120A]
< 10 nM

Look up IC50 for this compound: CN(C)CC1(COc2nc(N3CC4(C3)SCc3sc(N)c(C#N)c34)nc(N3CCC[C@@](C)(O)C3)n2)CC1(F)F (stereo partly shown)
10 to 100 nM

Look up IC50 for this compound: C[C@]1(O)CN(c2nc(OC[C@@]34CCCN3C[C@H](F)C4)nc(N3CC4(CCc5sc(N)c(C#N)c54)C3)n2)CC[C@@H]1O (racemic)
≥ 20000 nM

Continuing:
Look up IC50 for this compound: N#Cc1c(N)sc2c1C1(CC2)CN(c2nc(OCC3(CN4CCOCC4)CC3)nc(N3CCCC(C#N)C3)n2)C1 (stereo not shown)
1000 to 20000 nM

Look up IC50 for this compound: C=C1CN2CCCC2(COc2nc(N3CC4(CCc5sc(N)c(C#N)c54)C3)nc(N3CCC[C@@](C)(O)C3)n2)C1 (stereo partly shown)
100 to 1000 nM

Look up IC50 for this compound: "CCN(c1nc(OC[C@@H]2CC(F)(F)CN2C)nc(N2CC3(C2)SCc2sc(N)c(C#N)c23)n1)[C@H](C)c1cccnc1N"
10 to 100 nM

Look up IC50 for this compound: CN(C)CC1(COc2nc(N3CC4(C3)SCc3sc(N)c(C#N)c34)nc(N3C[C@@H](F)C[C@@](C)(O)C3)n2)CC1(F)F (stereo partly shown)
10 to 100 nM

Look up IC50 for this compound: N#Cc1c(N)sc2c1C1(CCC2)CN(c2nc(OC[C@@]34CCCN3C[C@H](F)C4)nc(N3CCCC(C#N)CC3)n2)C1 (stereo partly shown)
1000 to 20000 nM

Look up IC50 for this compound: CC(c1nsnc1N)N(C)c1nc(OC[C@@]23CCCN2C[C@H](F)C3)nc(N2CC3(C2)SCc2sc(N)c(C#N)c23)n1 (single isomer, unassigned) [Compound 184A]
< 10 nM

Look up IC50 for this compound: CC(c1cccnc1N)N(C)c1nc(OCC2(CN3CCOCC3)CC2)nc(N2CC3(CCc4sc(N)c(C#N)c43)C2)n1 (stereo not shown)
100 to 1000 nM

Look up IC50 for this compound: CC1(O)CC(F)CN(c2nc(OCC3(CN4CCOCC4)CC3)nc(N3CC4(CCc5sc(N)c(C#N)c54)C3)n2)C1 (stereo not shown)
10 to 100 nM

Look up IC50 for this compound: "C[C@@]1(O)C[C@@H](F)CN(c2nc(OC[C@@]34CCCN3C[C@H](F)C4)nc(N3CC4(C3)SCc3sc(N)c(C#N)c34)n2)C1"
100 to 1000 nM

Look up IC50 for this compound: "N#Cc1c(N)sc2c1C1(CN(c3nc(OC[C@@]45CCCN4C[C@H](F)C5)nc(N4CC(=O)Nc5ncccc5C4)n3)C1)SC2"
1000 to 20000 nM
